# Galium plant response rating (0-100) listing for each entry below
- System: galium (catchweed bedstraw, Galium aparine)
- Test Summary: Test A postemergence application, visual injury rating 0-100
- Format: in vivo
- Measurement Parameters: 62 g ai/ha, postemergence, 10 days, 0 = no effect, 100 = complete control
- Description: […]
Number only, please.

q: Look up Galium plant response rating (0-100) of C=CC1(C(=O)NC2COC(C(=O)OC)C2)CN(c2cc(F)cc(F)c2)C(=O)O1 (centres unmarked) [Compound 171] and report it.
a: 80

q: Give the measured Galium plant response rating (0-100) for CC1(C(=O)NC2CC=C(C(=O)O)C2)CN(c2cc(F)cc(Cl)c2)C(=O)O1 (centres unmarked) [Compound 160]
a: 0

q: Provide Galium plant response rating (0-100) value for the following molecule: COC(=O)C1=CCC(NC(=O)C2(C)CN(c3cc(F)cc(Cl)c3)C(=O)O2)C1 (centres unmarked) [Compound 140]
a: 90

q: # return recorded Galium plant response rating (0-100) for input CC(C)COC(=O)C1=CCC(NC(=O)C2(C)CN(c3cc(F)cc(F)c3)C(=O)O2)C1 (centres unmarked) [Compound 98]
a: 90

q: Give the measured Galium plant response rating (0-100) for COC(=O)C1C=CC(NC(=O)C2(C)CN(c3cc(F)cc(F)c3)C(=O)O2)C1 (mixture of isomers) [Compound 161]
a: 90
